# target: T1, B7-H3, native protein on the cell surface of A498 and SK-MES-1 cells (UniProt Q5ZPR3 29-534, limits assumed)
# T1 sequence (looked up): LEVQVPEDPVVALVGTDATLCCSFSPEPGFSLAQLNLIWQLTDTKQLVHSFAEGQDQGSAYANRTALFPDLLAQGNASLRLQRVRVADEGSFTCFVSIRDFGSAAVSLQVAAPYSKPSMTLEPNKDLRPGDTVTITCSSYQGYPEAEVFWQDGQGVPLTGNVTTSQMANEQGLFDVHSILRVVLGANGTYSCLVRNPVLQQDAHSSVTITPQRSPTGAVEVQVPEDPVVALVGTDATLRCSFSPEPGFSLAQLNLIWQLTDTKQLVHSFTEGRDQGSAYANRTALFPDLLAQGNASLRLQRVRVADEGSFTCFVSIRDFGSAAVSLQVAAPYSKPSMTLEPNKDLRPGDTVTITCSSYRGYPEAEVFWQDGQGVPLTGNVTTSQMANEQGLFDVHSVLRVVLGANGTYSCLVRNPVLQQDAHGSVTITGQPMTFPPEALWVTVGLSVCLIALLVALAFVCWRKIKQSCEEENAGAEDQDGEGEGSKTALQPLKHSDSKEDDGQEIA
# test-description: cell-based or functional assay
recorded-metric: ADCC (reporter) EC50, A498 target cells (nM)
Write the value in nM as a bare number.

>>> endpoint_value("SCT-Da148 (antibody, V domains shown) VH: EVQLQQSGAELVKPGASVKLSCTASGVNIKDTYIHWVKQRPEQGLEWIGRIDPANGNRKYDPKFQGKATITADSSSNTAYLQLSSLTSEDTAVYYCARDGYYAPGYWGQGTTLTVSS VL: DIVMTQSQKFMSTSVGDRVSVTCKASQNVGTDVAWYQQKPGQSPKLLIYSASYRFSGVPDRFTGSGSGTDFSLAISNVQSEDLAEYFCQQYNSYPYTFGGGAKLEIK")
3.6

Query :: Tell me measured ADCC (reporter) EC50, A498 target cells for SCT-Da333 (antibody, V domains shown) VH: QVQLQQSGPELVRPGVSVKISCKGSGYTFTDYAVHWVKQSHAKSLEWIGVINTYSGNTYYNLHFKGKATMTVDKSSSTAYMELARLTSEDSAIYYCARRRGSHRDAYFDYWGQGTTLTVSS VL: DIVMTQSHKFMSTSVGDRVSITCRASQDVSTAVAWYQQKPGQSPKLLIYSASYRYTGVPDRFTVSGSGTDFTFTISSVQAEDLAVYYCQQHYSTPWTFGGGTKLEIK please.
Result :: 23.3
